# target: HIV-1 RT wild-type enzyme (Human immunodeficiency virus type 1 group M subtype B (isolate HXB2) (HIV-1), UniProt P04585)
# run-description: HIV-1 reverse transcriptase inhibitory activity (RT polymerase assay)
# Format: biochemical
# particulars: HIV-1 RT wild-type enzyme 83 pM; RNA-dependent DNA polymerase activity; read-out: IC50
outcome-measure: pIC50
// field semantics: pIC50 = negative decimal log of concentration (mol/L)

Task: For the molecule N#Cc1cc(Oc2c(C(F)(F)F)ncn(Cc3ccc(=O)[nH]n3)c2=O)cc(C(F)(F)F)c1 [Example 20] , what pIC50 is on record?
Result: 7.62

Task: Item N#Cc1cc(Cl)cc(Oc2c(C3CC3)ncn(Cc3ccc(=O)[nH]n3)c2=O)c1 [Example 134] has what recorded pIC50?
Result: 7.77

Task: Which pIC50 reading was recorded for the molecule N#Cc1cc(Cl)cc(Oc2c(C(F)(F)F)ncn(Cc3cnc(-c4ccccc4)[nH]c3=O)c2=O)c1 [Example 149] ?
Result: 7.85

Task: Reported pIC50 for N#Cc1cc(Cl)cc(Oc2c(C(F)(F)F)ncn(Cc3cc(-c4ccc(F)cc4Cl)c(=O)[nH]n3)c2=O)c1 [Example 40] : what is it?
Result: 7.15

----------
# target: HIV-1 RT wild-type enzyme (Human immunodeficiency virus type 1 group M subtype B (isolate HXB2) (HIV-1), UniProt P04585)
# run-description: HIV-1 reverse transcriptase inhibitory activity (RT polymerase assay)
# Type: biochemical
# particulars: HIV-1 RT wild-type enzyme 83 pM; RNA-dependent DNA polymerase activity; read-out: IC50
pIC50: −log10 of the molar value.
Could you label it t if measured pIC50 is 8 or higher, and f otherwise?

Task: Entry N#Cc1cc(Cl)cc(Oc2c(C(F)(F)F)ncn(Cc3cnc(-c4ccc(OC(F)(F)F)cc4)[nH]c3=O)c2=O)c1 [Example 153] : is its pIC50 no less than 8?
Result: f

Task: # check: pIC50 of N#Cc1cc(Cl)cc(Oc2c(C(F)(F)F)ncn(Cc3cc(-c4ccc(Cl)cc4)c(=O)[nH]n3)c2=O)c1 [Example 28] is greater than or equal to 8
Result: t

Task: Could you tell me if the measured pIC50 of N#Cc1cc(Cl)cc(Oc2c(C(F)(F)F)ncn(Cc3cc(C4CC(F)(F)C4)c(=O)[nH]n3)c2=O)c1 [Example 9] reaches 8 or more?
Result: f

Task: API: above_or_equal(metric=pIC50, cutoff=8) for item N#Cc1cc(Cl)cc(Oc2c(C(F)(F)F)ncn(Cc3ncc[nH]c3=O)c2=O)c1 [Example 4]
Result: f

Task: Given the entry N#Cc1cc(Cl)cc(Oc2c(C(F)(F)F)ncn(Cc3cc(C(F)F)c(=O)[nH]n3)c2=O)c1 [Example 102] , answer whether its pIC50 meets or surpasses 8.
Result: f

----------
# target: HIV-1 RT wild-type enzyme (Human immunodeficiency virus type 1 group M subtype B (isolate HXB2) (HIV-1))
# run-description: HIV-1 reverse transcriptase inhibitory activity (RT polymerase assay)
# Format: biochemical
# particulars: HIV-1 RT wild-type enzyme 83 pM; RNA-dependent DNA polymerase activity; read-out: IC50
outcome-measure: IC50
The reply should consist of the numeric value with the unit placed after it.

Task: Look up IC50 for this compound: CC(C)(C)c1ncc(Cn2cnc(C(F)(F)F)c(Oc3cc(Cl)cc(C#N)c3)c2=O)c(=O)[nH]1
Result: 12 nM

Task: Would you mind telling me what IC50 value was observed for CC(C)c1cc(Cn2cnc(C(F)(F)F)c(Oc3cc(Cl)cc(C#N)c3)c2=O)n[nH]c1=O ?
Result: 7 nM

Task: Any idea what IC50 was measured for N#Cc1cc(Cl)cc(Oc2c(C(F)(F)F)ncn(Cc3cc(-c4cccc(F)c4Cl)c(=O)[nH]n3)c2=O)c1 ?
Result: 59 nM

Task: Endpoint output: IC50 of N#Cc1cc(Cl)cc(Oc2c(C(F)(F)F)ncn(Cc3cc(-c4ccc(Cl)c(F)c4)c(=O)[nH]n3)c2=O)c1 . Value?
Result: 5 nM
